Readings of Maximum mean fluorescence intensity for the listed binders
target: T1, human CD19 on CHO-K1-human CD19 cells (human, UniProt P15391 20-556)
T1 construct: whole, on cells; also called CHO-K1-human CD19-2C8
T1 sequence (looked up): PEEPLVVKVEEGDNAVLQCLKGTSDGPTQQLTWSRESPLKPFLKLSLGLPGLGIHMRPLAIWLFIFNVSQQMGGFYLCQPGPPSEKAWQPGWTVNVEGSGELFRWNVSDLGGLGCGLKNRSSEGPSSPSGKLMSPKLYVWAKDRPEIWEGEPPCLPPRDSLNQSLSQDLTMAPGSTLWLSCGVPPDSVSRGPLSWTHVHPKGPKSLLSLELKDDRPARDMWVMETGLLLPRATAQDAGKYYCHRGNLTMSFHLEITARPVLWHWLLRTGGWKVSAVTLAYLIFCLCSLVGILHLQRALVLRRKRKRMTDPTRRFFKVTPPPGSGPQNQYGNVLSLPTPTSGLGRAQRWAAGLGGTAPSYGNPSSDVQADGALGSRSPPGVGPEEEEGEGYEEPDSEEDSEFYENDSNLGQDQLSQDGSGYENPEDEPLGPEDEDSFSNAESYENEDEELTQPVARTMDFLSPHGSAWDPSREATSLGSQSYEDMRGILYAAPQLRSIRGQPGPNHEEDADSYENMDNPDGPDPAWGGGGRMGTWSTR
assayProcedure: FACS on CHO-K1-human CD19 cells
# answer = number (no unit)

1) F4.49.11 (antibody, human IgG1, V domains shown, human-murine chimeric antibody, human IgG1) VH: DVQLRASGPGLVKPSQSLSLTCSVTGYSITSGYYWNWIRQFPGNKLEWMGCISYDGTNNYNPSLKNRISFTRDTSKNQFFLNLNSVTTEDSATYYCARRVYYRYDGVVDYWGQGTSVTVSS VL: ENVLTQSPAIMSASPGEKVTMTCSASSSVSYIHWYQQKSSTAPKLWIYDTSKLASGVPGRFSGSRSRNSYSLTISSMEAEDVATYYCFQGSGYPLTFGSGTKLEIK : 44200
2) F5.10.6 (antibody, human IgG1, V domains shown, human-murine chimeric antibody, human IgG1) VH: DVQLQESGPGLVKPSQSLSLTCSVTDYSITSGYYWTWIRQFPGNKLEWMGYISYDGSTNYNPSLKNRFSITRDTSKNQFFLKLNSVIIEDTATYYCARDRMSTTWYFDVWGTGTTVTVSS VL: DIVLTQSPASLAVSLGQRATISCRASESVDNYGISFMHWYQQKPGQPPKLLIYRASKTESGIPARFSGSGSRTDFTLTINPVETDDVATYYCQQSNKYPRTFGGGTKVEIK : 47700

Let's switch to this binder now.
// query # query: Maximum mean fluorescence intensity of entry F6.12.12 (antibody, human IgG1, V domains shown, human-murine chimeric antibody, human IgG1) VH: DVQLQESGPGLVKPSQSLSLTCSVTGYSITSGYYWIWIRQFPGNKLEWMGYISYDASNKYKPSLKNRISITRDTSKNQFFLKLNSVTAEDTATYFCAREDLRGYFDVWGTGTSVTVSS VL: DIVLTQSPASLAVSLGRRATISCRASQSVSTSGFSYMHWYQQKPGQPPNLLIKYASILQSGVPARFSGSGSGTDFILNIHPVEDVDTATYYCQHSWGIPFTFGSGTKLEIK
// result 63300
